Catalogue of pIC50 values
test system: BT474 and HN5 tumor cell lines; experiment: Celltiter Glo growth inhibition assay (cellular Method B); assay type: cell-based; conditions: Homo sapiens, BT-474, 72 h; Table 2, Method B Celltiter Glo, 3 days; class over BT474 and HN5;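 further: class counts the more potent of the two cell lines (BT474 or HN5)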
pIC50: −log10 of the molar value.
Observed Property: pIC50

>>> readout_value("COc1ccc(-c2nn3ccccc3c2-c2ccnc(Nc3ccc4c(c3)CC(N(C)C)C4)n2)cc1NC(=O)Cc1cccs1 (stereo not shown) [Example 48]")
"6.00 to 7.00"
>>> readout_value("CN(C)CCOc1cccc(Nc2nccc(-c3c(-c4ccc(F)c(NC(=O)Cc5cccs5)c4)nn4ccccc34)n2)c1 [Example 38]")
"6.00 to 7.00"
>>> readout_value("COc1ccc(-c2nn3ccccc3c2-c2ccnc(Nc3ccc4c(c3)CN(C)CC4)n2)cc1NC(=O)Cc1cccs1 [Example 49]")
"< 6.00"
>>> readout_value("CN(C)CCOc1cccc(Nc2nccc(-c3c(-c4cccc(NC(=O)Cc5cccs5)c4)nn4cc(F)ccc34)n2)c1 [Example 34]")
"6.00 to 7.00"
>>> readout_value("O=C(Cc1c(F)cccc1F)Nc1cccc(-c2nn3ccccc3c2-c2ccnc(Nc3cccc(-c4cnco4)c3)n2)c1 [Example 20]")
"6.00 to 7.00"
>>> readout_value("CS(=O)(=O)CCNCc1cccc(Nc2nccc(-c3c(-c4cccc(NC(=O)Cc5cccs5)c4)nn4ccccc34)n2)c1 [Example 41]")
"6.00 to 7.00"
>>> readout_value("CN1CCc2ccc(Nc3nccc(-c4c(-c5cccc(NC(=O)Cc6cccs6)c5)nn5cccc(F)c45)n3)cc2C1 [Example 30]")
"< 6.00"
>>> readout_value("CN1CCc2ccc(Nc3ncc(F)c(-c4c(-c5cccc(NC(=O)c6c(F)cccc6F)c5)nn5ccccc45)n3)cc2C1 [Example 51]")
"6.00 to 7.00"
>>> readout_value("Cc1cc(CC(=O)Nc2cccc(-c3nn4ccccc4c3-c3ccnc(Nc4cccc(-c5cnco5)c4)n3)c2)on1 [Example 19]")
"6.00 to 7.00"
>>> readout_value("Cc1ncoc1-c1cccc(Nc2nccc(-c3c(-c4cccc(NC(=O)Cc5cccs5)c4)nn4ccccc34)n2)c1 [Example 52]")
"6.00 to 7.00"
>>> readout_value("CN1CCC(N(C)CCOc2cc(Nc3nccc(-c4c(-c5cccc(NC(=O)Cc6cccs6)c5)nn5ccccc45)n3)ccc2Cl)C1 (stereo not shown) [Example 46]")
"< 6.00"
>>> readout_value("O=C(Cc1cccs1)Nc1cc(-c2nn3ccccc3c2-c2ccnc(Nc3cccc(CN4CCCC4)c3)n2)ccc1F [Example 61]")
"6.00 to 7.00"
>>> readout_value("Cc1ccc(-c2nn3ccccc3c2-c2ccnc(Nc3cccc(CN4CCCC4)c3)n2)cc1NC(=O)Cc1cccs1 [Example 56]")
"< 6.00"
>>> readout_value("Cc1ccc(OCCN(C)C)cc1Nc1nccc(-c2c(-c3ccc(F)c(NC(=O)Cc4cccs4)c3)nn3ccccc23)n1 [Example 62]")
"< 6.00"
>>> readout_value("O=C(Cc1ccccn1)Nc1cccc(-c2nn3ccccc3c2-c2ccnc(Nc3cccc(-c4cnco4)c3)n2)c1 [Example 23]")
"6.00 to 7.00"
>>> readout_value("O=C(Cc1cccnc1)Nc1cccc(-c2nn3ccccc3c2-c2ccnc(Nc3cccc(-c4cnco4)c3)n2)c1 [Example 21]")
"6.00 to 7.00"
>>> readout_value("CN(C)Cc1cccc(Nc2nccc(-c3c(-c4cccc(NC(=O)Cc5cccs5)c4)nn4ccccc34)n2)c1 [Example 7]")
"6.00 to 7.00"
>>> readout_value("Cc1ccc(-c2nn3ccccc3c2-c2ccnc(Nc3cccc(OCCN(C)C)c3)n2)cc1NC(=O)Cc1cccs1 [Example 58]")
"6.00 to 7.00"
>>> readout_value("Cc1ccc(-c2nn3ccccc3c2-c2ccnc(Nc3ccc4c(c3)CN(C)CC4)n2)cc1NC(=O)Cc1cccs1 [Example 59]")
"6.00 to 7.00"
